Collected pIC50 values appear next to each entry.
Target Under Test: SMYD2 (Homo sapiens)
Construct: Full length SMYD2 (NP_064582.2) was cloned; His6 (N, cleaved yes); FLAG (N); made in house; host or cells: Sf9 insect cells
Sequence (Q9NRG4 whole entry): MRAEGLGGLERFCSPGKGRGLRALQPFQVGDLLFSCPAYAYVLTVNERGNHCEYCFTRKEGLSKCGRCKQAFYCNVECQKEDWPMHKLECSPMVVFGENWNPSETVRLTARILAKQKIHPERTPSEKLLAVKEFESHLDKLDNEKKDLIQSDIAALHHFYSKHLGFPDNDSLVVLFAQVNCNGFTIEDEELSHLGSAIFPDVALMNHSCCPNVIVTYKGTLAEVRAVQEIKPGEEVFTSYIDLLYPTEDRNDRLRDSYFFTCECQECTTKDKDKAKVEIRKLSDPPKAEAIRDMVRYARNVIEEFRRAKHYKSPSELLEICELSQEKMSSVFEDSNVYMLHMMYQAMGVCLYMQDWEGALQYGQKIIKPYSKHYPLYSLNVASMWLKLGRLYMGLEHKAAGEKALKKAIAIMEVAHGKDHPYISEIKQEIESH
Measurement Protocol: SMYD2 biochemical assay (3H-SAM, biotinylated peptide substrate, Flashplate)
Applied Conditions: Table 3; average of n = 1 to n = 50; read-out: SMYD2 Biochem IC50
pIC50: −log10 of the molar value.

Completed entries (count: 5):
[[record]]
compound = "CC(C)N1C[C@@H](C)[C@@H](NC(=O)c2nc(C3CC3)ns2)C1 (racemic) [compound 86]"
observable = "pIC50"
reported = "< 4.30"

[[record]]
compound = "CC(C)N1C[C@@H](C)[C@H](NC(=O)c2cncc(C3CC3)n2)C1 (racemic) [compound 43]"
observable = "pIC50"
reported = "< 4.30"

[[record]]
compound = "CC(C)N1C[C@@H](C)[C@H](NC(=O)c2cnc(C3CC3)o2)C1 (racemic) [compound 70]"
observable = "pIC50"
reported = "< 4.30"

[[record]]
compound = "CC(C)N1C[C@H](C)[C@H](NC(=O)c2nsc(C3CC3)n2)C1 (racemic) [compound 88]"
observable = "pIC50"
reported = "< 4.30"

[[record]]
compound = "CC(C)N1C[C@@H](C)[C@H](NC(=O)CCN2CCCC2)C1 (racemic) [compound 55]"
observable = "pIC50"
reported = "< 4.30"


C[C@@H]1CN(C2CC2)C[C@H]1NC(=O)c1cccc(N2CCCC2)c1 (racemic) [compound 34] has a reported pIC50 of < 4.30

CC(C)N1C[C@H](C)[C@H](NC(=O)c2cn(C3CC3)nn2)C1 (racemic) [compound 27] has a reported pIC50 of 6.11

CC(C)N1C[C@@H](C)[C@H](NC(=O)c2ncc(C3CC3)s2)C1 (racemic) [compound 72] has a reported pIC50 of < 4.30

CC(C)N1C[C@H](C)[C@H](NC(=O)c2ncc(C3CC3)[nH]2)C1 (racemic) [compound 79] has a reported pIC50 of 5.71

CC(C)N1C[C@@H](C)[C@@H](NC(=O)c2cc(C3CC3)n(C)n2)C1 (racemic) [compound 89] has a reported pIC50 of < 4.30

CC(C)N1C[C@H](C)[C@H](NC(=O)c2cc(C3CC3)sn2)C1 (racemic) [compound 93] has a reported pIC50 of 6.11

CC(C)N1C[C@H](C)[C@H](NC(=O)c2cc(C3CC3)cnn2)C1 (stereo in doubt) [compound 98] has a reported pIC50 of 5.68

CC(C)N1C[C@@H](C)[C@H](NC(=O)c2coc(C3CC3)n2)C1 (racemic) [compound 54] has a reported pIC50 of < 4.30

CC(=O)N[C@@H]1CN(C(C)C)C[C@H]1C (racemic) [compound 58] has a reported pIC50 of < 4.30

CC(C)N1C[C@H](C)[C@H](NC(=O)c2cc3c(cn2)OC(F)(F)O3)C1 (racemic) [compound 75] has a reported pIC50 of < 4.30

CC(C)N1C[C@H](C)[C@H](NC(=O)c2cc(C3CC3)c[nH]c2=O)C1 (racemic) [compound 82] has a reported pIC50 of 4.87

---

Target Under Test: SMYD2 (Homo sapiens)
Construct: Full length SMYD2 (NP_064582.2) was cloned; His6 (N, cleaved yes); FLAG (N); made in house; host or cells: Sf9 insect cells
Measurement Protocol: SMYD2 biochemical assay (3H-SAM, biotinylated peptide substrate, Flashplate)
Applied Conditions: Table 3; average of n = 1 to n = 50; read-out: SMYD2 Biochem IC50
Label key: TRUE means IC50 under 7 µM; FALSE means IC50 of 7 µM or more.

[[record]]
molecule = "CC(C)N1C[C@@H](C)[C@@H](NC(=O)c2cc(C3CC3)cnn2)C1 (stereo in doubt) [compound 110]"
label_value = "TRUE"

[[record]]
molecule = "CC(C)N1C[C@H](C)[C@H](NC(=O)c2ncc(C3CC3)o2)C1 (racemic)"
label_value = "TRUE"

[[record]]
molecule = "CC(C)N1C[C@@H](C)[C@H](NC(=O)c2ncc(C3CC3)o2)C1 (racemic)"
label_value = "FALSE"


Problem: Determine if CC(C)N1C[C@H](C)[C@H](NC(=O)CCN2CCCC2)C1 (racemic) shows IC50 strictly lower than 7 µM.
Result: FALSE

Problem: Determine if CC(C)N1C[C@@H](C)[C@H](NC(=O)c2c[nH]c(C3CC3)n2)C1 (racemic) shows IC50 strictly lower than 7 µM.
Result: FALSE

Problem: Determine if C[C@@H]1CN(Cc2ccc(OCc3ccccc3)cc2)C[C@H]1NC(=O)c1cn(C2CC2)nn1 (racemic) shows IC50 strictly lower than 7 µM.
Result: FALSE
